assayed-system: human Y1 receptor (human, UniProt P25929)
protocol-text: 125I-PYY displacement, COS-7 membranes
observable: pKi
Just so you know, pKi here is -log10 of the concentration in molar units; reply with that number alone.

According to the records, this binder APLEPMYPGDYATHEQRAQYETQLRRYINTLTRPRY [rat PP] displays pKi of 6.35

Where these numbers come from: patent US20020103123A1
